Origin of values: ChEMBL document CHEMBL5226376

# System: Bacillus subtilis
# assay-info: Antibacterial activity against Bacillus subtilis NCIB3610 assessed as inhibition of bacterial growth incubated for overnight by disk diffusion method
# Format: functional, organism-based
Activity calls are given as the source filed them. The rule behind the calls is not given here.
metric: Activity

Reference set, count: 4
>>> reported_result("Nc1nc2[nH]c(-c3[nH]c4ccccc4c3C[C@@H]3NC(=O)/C(=C/c4ccccc4)NC3=O)nc2c(=O)[nH]1")
"inactive"
>>> reported_result("Nc1nc2[nH]c(-c3[nH]c4ccccc4c3C[C@@H]3NC(=O)/C(=C/c4ccc(O)cc4)NC3=O)nc2c(=O)[nH]1")
"inactive"
>>> reported_result("Nc1nc2[nH]c(-c3[nH]c4ccccc4c3C[C@@H]3NC(=O)[C@H](Cc4ccc(O)cc4)NC3=O)nc2c(=O)[nH]1")
"inactive"
>>> reported_result("Nc1nc2[nH]c(-c3[nH]c4ccccc4c3C[C@@H]3NC(=O)[C@H](Cc4ccccc4)NC3=O)nc2c(=O)[nH]1")
"inactive"

Alright, here's another compound for you.
What does the data say about its Activity? Entry: Nc1nc2[nH]c(-c3[nH]c4ccccc4c3C[C@@H]3NC(=O)[C@H](Cc4c[nH]c5ccccc45)NC3=O)nc2c(=O)[nH]1
inactive
